Below, each of the variants is paired with its reported ratio to parent value.
B1: H2-Kb / B16 (parent)
chain 1: QQQVRQSPQSLTVWEGGTTVLTCSYEDSTFNYFPWYQQFPGEGPALLISILSVSDKKEDGRFTTFFNKREKKLSLHIIDSQPGDSATYFCAARGSALGRLHFGAGTQLIVIP
chain 2: EAAVTQSPRSKVAVTGGKVTLSCHQTNNHDYMYWYRQDTGHGLRLIHYSYVADSTEKGDIPDGYKASRPSQENFSLILELASLSQTAVYFCASSDGTNQAPLFGEGTRLSVL
chain 3: not shown
chain 4: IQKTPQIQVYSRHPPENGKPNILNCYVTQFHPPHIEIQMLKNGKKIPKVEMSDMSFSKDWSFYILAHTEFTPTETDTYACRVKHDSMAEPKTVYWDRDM
chain 5: SIINFEKL

- Variants of: B1
- experiment: % of reporter cells activated (NFAT-GFP), raw; note: test concentration or dose not given here
- measurement-setup: with B16; scale: % of reporter cells activated
property-label: ratio to parent

[[record]]
variant_name = "chain 5 F5I"
reported_result = 1.07

[[record]]
variant_name = "chain 5 K7H"
reported_result = 1.21

[[record]]
variant_name = "chain 5 I2L"
reported_result = 1.51

[[record]]
variant_name = "chain 5 I3P"
reported_result = 2.05

[[record]]
variant_name = "chain 5 K7R"
reported_result = 0.488

[[record]]
variant_name = "chain 5 F5H"
reported_result = 1.61

[[record]]
variant_name = "chain 5 I3E"
reported_result = 1.3

[[record]]
variant_name = "chain 5 S1I"
reported_result = 1.35

[[record]]
variant_name = "chain 5 K7M"
reported_result = 0.921

[[record]]
variant_name = "chain 5 F5R"
reported_result = 1.2

[[record]]
variant_name = "chain 5 I3F"
reported_result = 1.11

[[record]]
variant_name = "chain 5 E6N"
reported_result = 1.36

[[record]]
variant_name = "chain 5 S1E"
reported_result = 1.26

[[record]]
variant_name = "chain 5 L8G"
reported_result = 1.26

[[record]]
variant_name = "chain 5 K7Q"
reported_result = 1.39

[[record]]
variant_name = "chain 5 F5Q"
reported_result = 1.39

[[record]]
variant_name = "chain 5 F5A"
reported_result = 1.48

[[record]]
variant_name = "chain 5 S1R"
reported_result = 0.846

[[record]]
variant_name = "chain 5 K7L"
reported_result = 1.03

[[record]]
variant_name = "chain 5 K7N"
reported_result = 0.823

[[record]]
variant_name = "chain 5 E6P"
reported_result = 1.09

[[record]]
variant_name = "chain 5 L8D"
reported_result = 0.823

[[record]]
variant_name = "chain 5 F5G"
reported_result = 1.52

[[record]]
variant_name = "chain 5 L8A"
reported_result = 0.921

[[record]]
variant_name = "chain 5 E6I"
reported_result = 0.917

[[record]]
variant_name = "chain 5 S1M"
reported_result = 1.08

[[record]]
variant_name = "chain 5 N4V"
reported_result = 1.14

[[record]]
variant_name = "chain 5 I2G"
reported_result = 1.56

[[record]]
variant_name = "chain 5 I3Y"
reported_result = 1.33

[[record]]
variant_name = "chain 5 N4S"
reported_result = 1.09

[[record]]
variant_name = "chain 5 F5C"
reported_result = 1.46

[[record]]
variant_name = "chain 5 S1K"
reported_result = 1.38

[[record]]
variant_name = "chain 5 N4W"
reported_result = 1.13

[[record]]
variant_name = "chain 5 I2T"
reported_result = 1.34

[[record]]
variant_name = "chain 5 K7C"
reported_result = 1.33

[[record]]
variant_name = "chain 5 E6V"
reported_result = 1.2

[[record]]
variant_name = "chain 5 L8P"
reported_result = 1.36

[[record]]
variant_name = "chain 5 I3H"
reported_result = 1.38

[[record]]
variant_name = "chain 5 E6W"
reported_result = 1.05

